Tested on: CHEK2;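 note: KINOMEscan kinase panel screen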
Conditions: concentration: 1 μM, replicates: in singlicate; n = 1
Mark label 1 for %Inh under 10%, label 0 if at or over.

[
  {
    "molecule": "COc1ccc(-c2cc3c(C)nc(N)nc3n([C@H]3CC[C@H](OCCO)CC3)c2=O)cn1",
    "targetDesc": "CHEK2",
    "answerLabel": "label 0"
  }
]

Hello, is %Inh of the following molecule strictly smaller than 10%? COc1ccc(-c2cc3c(C)nc(N)nc3n([C@H]3CC[C@H](O)CC3)c2=O)cn1
label 0

Hello, is %Inh of the following molecule strictly smaller than 10%? COC(=O)c1c(-c2ccccc2)c2cc(Br)ccc2c(=O)n1Cc1ccc(S(C)(=O)=O)cc1
label 0

Hello, is %Inh of the following molecule strictly smaller than 10%? Cc1cc(Nc2nc(-c3cccc(C)n3)nc3ccccc23)ccn1
label 1

Hello, is %Inh of the following molecule strictly smaller than 10%? CCc1nc(-c2cccc(C)c2)c(-c2ccncc2)s1
label 0
